Target: EGFR wild type (Homo sapiens, UniProt P00533)
Construct: purchased Carna Bio
Sequence (P00533 25-1210): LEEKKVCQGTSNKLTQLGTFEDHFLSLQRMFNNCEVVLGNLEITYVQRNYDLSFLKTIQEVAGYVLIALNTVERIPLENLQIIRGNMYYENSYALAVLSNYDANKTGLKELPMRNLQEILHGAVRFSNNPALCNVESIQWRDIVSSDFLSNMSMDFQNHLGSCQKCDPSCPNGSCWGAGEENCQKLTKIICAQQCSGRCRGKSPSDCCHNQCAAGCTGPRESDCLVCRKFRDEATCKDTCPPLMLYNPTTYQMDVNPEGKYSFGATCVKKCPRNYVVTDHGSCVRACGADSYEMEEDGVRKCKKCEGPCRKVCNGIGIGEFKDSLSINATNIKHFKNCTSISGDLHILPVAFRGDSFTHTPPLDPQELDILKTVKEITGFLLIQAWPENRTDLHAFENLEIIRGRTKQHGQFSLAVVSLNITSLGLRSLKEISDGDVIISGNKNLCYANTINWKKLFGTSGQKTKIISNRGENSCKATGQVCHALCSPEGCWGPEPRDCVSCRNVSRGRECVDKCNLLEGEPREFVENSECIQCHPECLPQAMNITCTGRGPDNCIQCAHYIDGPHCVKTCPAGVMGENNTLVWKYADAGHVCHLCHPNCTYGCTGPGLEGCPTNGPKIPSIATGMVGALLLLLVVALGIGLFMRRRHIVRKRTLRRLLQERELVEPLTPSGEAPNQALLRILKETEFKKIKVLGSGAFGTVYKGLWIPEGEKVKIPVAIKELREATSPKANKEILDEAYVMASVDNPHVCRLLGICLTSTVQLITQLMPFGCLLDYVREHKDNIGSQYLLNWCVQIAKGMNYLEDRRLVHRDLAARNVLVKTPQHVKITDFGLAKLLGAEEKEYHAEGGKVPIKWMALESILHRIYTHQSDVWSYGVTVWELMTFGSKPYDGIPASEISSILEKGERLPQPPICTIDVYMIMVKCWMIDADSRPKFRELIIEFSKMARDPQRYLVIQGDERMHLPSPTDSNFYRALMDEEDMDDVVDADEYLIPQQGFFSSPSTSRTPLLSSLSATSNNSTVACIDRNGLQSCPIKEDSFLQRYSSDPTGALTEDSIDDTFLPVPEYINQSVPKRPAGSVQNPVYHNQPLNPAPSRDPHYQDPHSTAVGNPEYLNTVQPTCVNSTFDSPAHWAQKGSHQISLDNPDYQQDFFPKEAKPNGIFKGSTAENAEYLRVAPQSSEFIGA
Assay: Inhibition of EGFR wild type biochemical enzymatic activity (HTRF)
Conditions: EGFR WT, 1 mM ATP, 1 h, room temperature, read-out: IC50 (nM) @WT
Reported IC50 values are given for each entry in this list.
Attribute Measured: IC50 (nM)

Molecule: C[C@@H]1CCCOc2ccc(F)cc2-c2cc(cn(C)c2=O)C(=O)Nc2nc3ccc(N4CCN(C)CC4)cc3n2C1
Attribute Measured: IC50
Reported: 216

Molecule: C[C@@H]1CCCOc2cc(F)c(F)cc2-c2cc(cn(C)c2=O)C(=O)Nc2nc3ccc(N4CCN(C)CC4)cc3n2C1
Attribute Measured: IC50
Reported: 607

Molecule: Cn1ncc2c1OCCN1CC3CCC(C3)(C1)n1c(nc3cc(F)c(N4CCOCC4)cc31)NC(=O)c1cc-2c(=O)n(C)c1 (single isomer, unassigned) [Example A118B]
Attribute Measured: IC50
Reported: 3640

====

Target: EGFR L858R/T790M (Homo sapiens, UniProt P00533, L858R/T790M)
Construct: purchased Carna Bio
Sequence (P00533 25-1210 T790M/L858R): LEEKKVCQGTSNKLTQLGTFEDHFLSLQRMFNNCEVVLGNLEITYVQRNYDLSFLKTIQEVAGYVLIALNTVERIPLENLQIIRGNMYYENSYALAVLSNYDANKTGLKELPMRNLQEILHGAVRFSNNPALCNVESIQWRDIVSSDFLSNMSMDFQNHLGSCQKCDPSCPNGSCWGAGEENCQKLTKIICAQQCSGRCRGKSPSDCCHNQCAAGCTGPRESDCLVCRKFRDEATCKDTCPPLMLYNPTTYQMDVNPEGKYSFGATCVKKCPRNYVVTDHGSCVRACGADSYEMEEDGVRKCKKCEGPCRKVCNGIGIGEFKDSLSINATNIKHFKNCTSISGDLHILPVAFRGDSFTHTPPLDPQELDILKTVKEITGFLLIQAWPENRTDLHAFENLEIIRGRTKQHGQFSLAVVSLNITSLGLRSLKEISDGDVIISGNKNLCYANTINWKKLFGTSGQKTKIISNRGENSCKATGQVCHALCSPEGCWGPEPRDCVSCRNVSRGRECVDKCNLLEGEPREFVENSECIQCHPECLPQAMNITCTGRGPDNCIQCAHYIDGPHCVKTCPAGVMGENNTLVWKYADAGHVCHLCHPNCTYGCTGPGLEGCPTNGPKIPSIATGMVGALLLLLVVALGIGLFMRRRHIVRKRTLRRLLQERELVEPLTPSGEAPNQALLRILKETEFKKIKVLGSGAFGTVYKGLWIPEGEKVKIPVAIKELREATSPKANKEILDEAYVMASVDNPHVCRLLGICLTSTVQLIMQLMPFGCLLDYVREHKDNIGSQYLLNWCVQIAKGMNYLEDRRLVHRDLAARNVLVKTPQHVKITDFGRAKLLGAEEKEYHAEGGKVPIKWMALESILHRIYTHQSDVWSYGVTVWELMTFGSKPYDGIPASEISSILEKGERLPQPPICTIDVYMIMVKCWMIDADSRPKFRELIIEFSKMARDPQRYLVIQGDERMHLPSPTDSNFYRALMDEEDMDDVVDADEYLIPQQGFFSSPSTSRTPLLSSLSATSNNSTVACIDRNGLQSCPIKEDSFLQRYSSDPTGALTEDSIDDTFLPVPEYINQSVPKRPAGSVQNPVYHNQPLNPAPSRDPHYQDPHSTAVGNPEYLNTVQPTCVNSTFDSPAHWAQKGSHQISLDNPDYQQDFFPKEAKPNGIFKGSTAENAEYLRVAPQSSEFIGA
Experiment: Inhibition of EGFR L858R/T790M biochemical enzymatic activity (HTRF)
Conditions: EGFR L858R-T790M, 1 mM ATP, 1 h, room temperature, read-out: IC50 (nM) @L858R-T790M
Reported IC50 values are given for each entry in this list.

Compound: CN(C)C1CCN(c2ccc3nc4n(c3c2)C23CCC(CN(CCOc5c(cnn5C)-c5cc(cn(C)c5=O)C(=O)N4)C2)C3)CC1(F)F (single isomer, unassigned) [Example A97A]
Study Target: EGFR L858R/T790M (Homo sapiens, UniProt P00533, L858R/T790M)
Value Prefix: >
IC50 (nM): 5000
--
Compound: CN1C2CC1CN(c1ccc3nc4n(c3c1)C13CCC(CN(CCOc5c(cnn5C)-c5cc(cn(C)c5=O)C(=O)N4)C1)C3)C2 (single isomer, unassigned) [Example A98A]
Study Target: EGFR L858R/T790M (Homo sapiens, UniProt P00533, L858R/T790M)
Value Prefix: >
IC50 (nM): 5000
--
Compound: C[C@@H]1CCCOc2c(cnn2C)-c2cc(cn(C)c2=O)C(=O)Nc2nc3ccc(N4CC(N(C)C)C4)cc3n2C1 [Example A37]
Study Target: EGFR L858R/T790M (Homo sapiens, UniProt P00533, L858R/T790M)
Value Prefix: =
IC50 (nM): 6.5
--
Compound: C[C@@H]1CCCOc2c(cnn2C)-c2cc(cn(C)c2=O)C(=O)Nc2nc3ccc(N4CCC5(CC4)CCN5C)cc3n2C1 [Example A52]
Study Target: EGFR L858R/T790M (Homo sapiens, UniProt P00533, L858R/T790M)
Value Prefix: =
IC50 (nM): 6.6
--
Compound: C[C@@H]1CCCOc2c(cnn2C)-c2cc(cn(C)c2=O)C(=O)Nc2nc3ccc(N4CC5(CCN(C)CC5)C4)cc3n2C1 [Example A41]
Study Target: EGFR L858R/T790M (Homo sapiens, UniProt P00533, L858R/T790M)
Value Prefix: =
IC50 (nM): 5.1
--
Compound: CN1CCC2(CN(c3ccc4nc5n(c4c3)C34CCC(CN(CCOc6c(cnn6C)-c6cc(cn(C)c6=O)C(=O)N5)C3)C4)C2)C(F)(F)C1 (single isomer, unassigned) [Example A91A]
Study Target: EGFR L858R/T790M (Homo sapiens, UniProt P00533, L858R/T790M)
Value Prefix: >
IC50 (nM): 5000
--
Compound: CN(C)C1CCN(c2ccc3nc4n(c3c2)C23CCC(CN(CCOc5c(cnn5C)-c5cc(cn(C)c5=O)C(=O)N4)C2)C3)CC1(F)F (single isomer, unassigned) [Example A97B]
Study Target: EGFR L858R/T790M (Homo sapiens, UniProt P00533, L858R/T790M)
Value Prefix: =
IC50 (nM): 5.7
--
Compound: CN1CCN(C2CCN(c3ccc4nc5n(c4c3)C34CCC(CN(CCOc6c(cnn6C)-c6cc(cn(C)c6=O)C(=O)N5)C3)C4)C2)CC1 (single isomer, unassigned) [Example A80A2]
Study Target: EGFR L858R/T790M (Homo sapiens, UniProt P00533, L858R/T790M)
Value Prefix: >
IC50 (nM): 5000
--
Compound: CN1CCN(C2CN(c3ccc4nc5n(c4c3)C34CCC(CN(CCOc6c(cnn6C)-c6cc(cn(C)c6=O)C(=O)N5)C3)C4)C2)CC1 (single isomer, unassigned) [Example A70B]
Study Target: EGFR L858R/T790M (Homo sapiens, UniProt P00533, L858R/T790M)
Value Prefix: =
IC50 (nM): 1.8
--
Compound: CN1CCC2CN(c3ccc4nc5n(c4c3)C34CCC(CC3)CN(CCOc3c(cnn3C)-c3cc(cn(C)c3=O)C(=O)N5)C4)CC21 (stereo not shown) [Example A127]
Study Target: EGFR L858R/T790M (Homo sapiens, UniProt P00533, L858R/T790M)
Value Prefix: =
IC50 (nM): 211
--
Compound: CN1CCOC2(C1)CN(c1ccc3nc4n(c3c1)C13CCC(CN(CCOc5c(cnn5C)-c5cc(cn(C)c5=O)C(=O)N4)C1)C3)C2 (single isomer, unassigned) [Example A86A]
Study Target: EGFR L858R/T790M (Homo sapiens, UniProt P00533, L858R/T790M)
Value Prefix: >
IC50 (nM): 5000
--
Compound: CN(C)[C@H]1CCN(c2ccc3nc4n(c3c2)C23CCC(CC2)CN(CCOc2c(cnn2C)-c2cc(cn(C)c2=O)C(=O)N4)C3)C1 [Example A120]
Study Target: EGFR L858R/T790M (Homo sapiens, UniProt P00533, L858R/T790M)
Value Prefix: =
IC50 (nM): 374
--
Compound: CN1CCN(c2ccc3nc4n(c3c2)C23CCC(CN(CCOc5c(cnn5C)-c5cc(cn(C)c5=O)C(=O)N4)C2)C3)CC1 (single isomer, unassigned) [Example A63B]
Study Target: EGFR L858R/T790M (Homo sapiens, UniProt P00533, L858R/T790M)
Value Prefix: =
IC50 (nM): 0.92
--
Compound: CN1CCN(c2ccc3nc4n(c3c2)CCN(CC(F)(F)F)CCOc2c(cnn2C)-c2cc(cn(C)c2=O)C(=O)N4)CC1 [Example A3]
Study Target: EGFR L858R/T790M (Homo sapiens, UniProt P00533, L858R/T790M)
Value Prefix: =
IC50 (nM): 12
--
Compound: CN(C)C1CN(c2ccc3nc4n(c3c2)C23CCC(CN(CCOc5c(cnn5C)-c5cc(cn(C)c5=O)C(=O)N4)C2)C3)CC1F (single isomer, unassigned) [Example A84B]
Study Target: EGFR L858R/T790M (Homo sapiens, UniProt P00533, L858R/T790M)
Value Prefix: >
IC50 (nM): 5000
--
Compound: CN1CCC2(C1)CN(c1ccc3nc4n(c3c1)C13CCC(CN(CCOc5c(cnn5C)-c5cc(cn(C)c5=O)C(=O)N4)C1)C3)C2 (single isomer, unassigned) [Example A78A]
Study Target: EGFR L858R/T790M (Homo sapiens, UniProt P00533, L858R/T790M)
Value Prefix: >
IC50 (nM): 5000
--
Compound: CN1CCC2(C1)CN(c1ccc3nc4n(c3c1)C13CCC(CN(CCOc5c(cnn5C)-c5cc(cn(C)c5=O)C(=O)N4)C1)C3)C2 (single isomer, unassigned) [Example A78B]
Study Target: EGFR L858R/T790M (Homo sapiens, UniProt P00533, L858R/T790M)
Value Prefix: =
IC50 (nM): 2.4
--
Compound: CN1CCCC12CN(c1ccc3nc4n(c3c1)C13CCC(CN(CCOc5c(cnn5C)-c5cc(cn(C)c5=O)C(=O)N4)C1)C3)C2 (single isomer, unassigned) [Example A76A]
Study Target: EGFR L858R/T790M (Homo sapiens, UniProt P00533, L858R/T790M)
Value Prefix: >
IC50 (nM): 5000
--
Compound: C[C@@H]1CCCOc2cc(F)c(F)cc2-c2cc(cn(C)c2=O)C(=O)Nc2nc3ccc(N4CCN(C)CC4)cc3n2C1 [Example A111]
Study Target: EGFR L858R/T790M (Homo sapiens, UniProt P00533, L858R/T790M)
Value Prefix: =
IC50 (nM): 86
--
Compound: C[C@@H]1CCCOc2c(cnn2C)-c2cc(cn(C)c2=O)C(=O)Nc2nc3ccc(N4CCN(CC(F)(F)F)CC4)cc3n2C1 [Example A53]
Study Target: EGFR L858R/T790M (Homo sapiens, UniProt P00533, L858R/T790M)
Value Prefix: =
IC50 (nM): 70
--
Compound: CCN1CCN(c2ccc3nc4n(c3c2)C23CCC(CN(CCOc5c(cnn5C)-c5cc(cn(C)c5=O)C(=O)N4)C2)C3)CC1 (single isomer, unassigned) [Example A107B]
Study Target: EGFR L858R/T790M (Homo sapiens, UniProt P00533, L858R/T790M)
Value Prefix: =
IC50 (nM): 2.7
--
Compound: CN1CCN(C2CCN(c3ccc4nc5n(c4c3)C34CCC(CN(CCOc6c(cnn6C)-c6cc(cn(C)c6=O)C(=O)N5)C3)C4)CC2)CC1 (single isomer, unassigned) [Example A106B]
Study Target: EGFR L858R/T790M (Homo sapiens, UniProt P00533, L858R/T790M)
Value Prefix: =
IC50 (nM): 2.2
